- Test system: MOLT-4 leukemia
- PROTOCOL SUMMARY: NCI tumour cell line growth inhibition, 48 h
Provide the recorded TGI for the entries that follow.
The figure you give is taken to be in µM; do not add the unit.

Problem: Tell me the measured TGI of "Cc1c(C)n(-c2ccccc2)c2nc(S(C)(=O)=O)nc(S(C)(=O)=O)c12" , please.
Result: 2.49

Problem: Please answer likewise for C=C1C(=O)OC2CC(C)C3(O)CCC(=O)C3(C)CC12 (stereo not drawn)
Result: 58

* * *

- System: SNB-75 CNS
- PROTOCOL SUMMARY: NCI tumour cell line growth inhibition, 48 h
RECORDED ENDPOINT: TGI

Problem: Tell me the measured TGI of "O=C(c1cccs1)N(C(=O)N1CCN(c2ccccc2)CC1)S(=O)(=O)c1ccccc1" , please.
Result: 61.2 µM

Problem: Please answer likewise for O=C1OCC2C1C1c3ccccc3C(O)c3ccccc3C21 (centres undefined)
Result: > 100 µM

Problem: Please answer likewise for "CN1C(=O)CSC1=S"
Result: > 100 µM

Problem: Please answer likewise for O=[N+]([O-])c1ccc(N2N=C(c3ccc(NCc4nc5ccccc5[nH]4)cc3)CC2c2ccco2)cc1 (centres undefined)
Result: > 100 µM

Problem: Please answer likewise for CC(C)CC(NC(=O)C(CI)Cc1ccccc1)C(=O)Nc1ccccc1 (centres undefined)
Result: > 100 µM

Problem: Please answer likewise for "COc1cc(N=Nc2cccc(S(=O)(=O)O)c2)ccc1N=Nc1ccc(/C=C/c2ccc(-n3on3-c3ccc(/C=C/c4ccc(N=Nc5ccc(N=Nc6cccc(S(=O)(=O)O)c6)cc5OC)cc4S(=O)(=O)O)c(S(=O)(=O)O)c3)cc2S(=O)(=O)O)c(S(=O)(=O)O)c1"
Result: > 100 µM

Problem: Please answer likewise for COC1(OC)CC2C(=O)N(Cc3ccccc3)C1C=C2S(=O)(=O)c1ccccc1 (centres undefined)
Result: 93.9 µM

Problem: Please answer likewise for "O=C(/N=C/c1c(O)c2ccccc2oc1=O)Oc1ccccc1"
Result: 68.4 µM

Problem: Please answer likewise for "O=C(Nc1nncs1)NS(=O)(=O)n1c(=S)sc2ccccc21"
Result: > 100 µM

* * *

- System: SK-OV-3 ovarian
- PROTOCOL SUMMARY: NCI tumour cell line growth inhibition, 48 h
RECORDED ENDPOINT: TGI (µM)
The figure you give is taken to be in µM; do not add the unit.

Problem: Tell me the measured TGI of "COc1cc(O)c(C(=O)/C=C/c2ccc(O)cc2)cc1Oc1ccc(/C=C/C(=O)c2ccc(O)cc2O)cc1" , please.
Result: 15.9

Problem: Please answer likewise for "COc1cc(C(C)=O)cc(C(=O)N(C(C)C)C(C)C)c1[Si](C)(C)C"
Result: 99.2

Problem: Please answer likewise for "CC(=O)O/C(=C1\C[C@H]2[C@@H]3CC=C4C[C@@H](OC(C)=O)CC[C@]4(C)[C@H]3CC[C@]2(C)C1=O)C(F)(F)F"
Result: 44.5

Problem: Please answer likewise for "COc1c[c]([Hg][O]C(C)=O)c(OC)c(NC(=O)CC(C)=O)[c]1[Hg][O]C(C)=O"
Result: 32.7

* * *

- Test system: PC-3 prostate
- PROTOCOL SUMMARY: NCI tumour cell line growth inhibition, 48 h; in the data active = GI50 below about 0.43 µM; inactive = the rest
API: response.call in active, inactive

Problem: Just curious, what result did "COc1ccc(-c2ccc(-c3ccc(C(=N)N)s3)s2)cc1" get here?
Result: active

Problem: Please answer likewise for "Cc1[nH]c(/C=C2\C(=O)Nc3ccccc32)c(C)c1CCC(=O)O"
Result: inactive

Problem: Please answer likewise for "O=C(Nc1ccc(-n2ccc3c(NC(=O)c4ccccc4)nccc32)cc1)Nc1ccc(Cl)c(Cl)c1"
Result: inactive

Problem: Please answer likewise for N#CC1=C(N)Oc2cc(O)ccc2C1c1cccc2ccccc12 (centres undefined)
Result: inactive

Problem: Please answer likewise for "O=C(Nc1ccc(F)cc1)c1cc(S(=O)(=O)Nc2nc3ccccc3o2)c(SCc2ccccc2)cc1Cl"
Result: inactive

Problem: Please answer likewise for "O=C1NC(=NCCc2cccc(Cl)c2)S/C1=C\c1ccc2ncccc2c1"
Result: inactive

Problem: Please answer likewise for "CCOC(=O)c1c(NC(=O)c2cccc(C(F)(F)F)c2)sc2c(CN(C)C)c(O)ccc12"
Result: inactive

Problem: Please answer likewise for "COc1ccc(O)c(C(=O)c2ccc(C(=O)N[C@H]3CCCNC[C@@H]3NC(=O)c3ccncc3)cc2)c1F"
Result: inactive

Problem: Please answer likewise for "CCn1c(=O)c2c(=O)c3c4c(oc3oc2c2ccccc21)C(=O)c1ccccc1C4=O"
Result: inactive
